Catalogue of pKd readings, one per entry.
- SYSTEM UNDER TEST: T1, human IL-23 (human, UniProt P29460 23-328; Q9NPF7 20-189)
- T1 construct: Recombinant (Ebioscience); HIS-tagged in flow cytometry, biotinylated in some assays; also called hIL-23; rhIL-23
- T1 sequence 1: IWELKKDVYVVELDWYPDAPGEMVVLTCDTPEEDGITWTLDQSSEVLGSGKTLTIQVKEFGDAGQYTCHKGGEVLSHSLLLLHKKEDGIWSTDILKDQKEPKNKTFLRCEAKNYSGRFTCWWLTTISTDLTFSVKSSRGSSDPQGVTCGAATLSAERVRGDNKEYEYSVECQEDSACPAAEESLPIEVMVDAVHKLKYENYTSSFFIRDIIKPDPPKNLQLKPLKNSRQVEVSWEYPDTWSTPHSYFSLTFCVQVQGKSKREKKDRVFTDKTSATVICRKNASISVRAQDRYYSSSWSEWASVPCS
- T1 sequence 2: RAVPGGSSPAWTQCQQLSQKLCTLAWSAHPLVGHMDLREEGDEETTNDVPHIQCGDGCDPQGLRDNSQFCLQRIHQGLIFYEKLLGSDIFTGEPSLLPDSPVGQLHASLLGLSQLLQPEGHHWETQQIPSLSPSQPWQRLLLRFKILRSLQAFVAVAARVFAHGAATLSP
- PROTOCOL: SPR, IgG on Protein A
As a rule, pKd stands for the negative log10 of the concentration, concentration in M.

These solved cases illustrate the format of a correct answer.
{"BINDER": "Antibody 181 (antibody, human IgG1, kappa, V domains shown) VH: EVQLVQSGAEVKKPGATVKISCKASGYTFSDYYLHWVRQAPEKGLEWMGWIDPENGDTEHAPKFQGRVTITADTSTDTGYLELSSLRSEDTAVYYCAANKELRYFDVWGQGTLVTVSS VL: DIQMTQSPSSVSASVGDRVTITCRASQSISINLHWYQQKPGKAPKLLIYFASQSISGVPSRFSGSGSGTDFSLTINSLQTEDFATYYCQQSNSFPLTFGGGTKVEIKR", "EXPERIMENTAL RESULT": 10.37}
{"BINDER": "Antibody 198 (antibody, human IgG1, kappa, V domains shown) VH: QVQLVQSGAEVKKPGASVKVSCKASGYAFTDYYLHWVRQAPGQGLEWMGWIDPENGDTEYAPKFQGRVTMTTDTSTSTAYMELRSLRSDDTAVYYCAANKELRYFDVWGQGTMVTVSS VL: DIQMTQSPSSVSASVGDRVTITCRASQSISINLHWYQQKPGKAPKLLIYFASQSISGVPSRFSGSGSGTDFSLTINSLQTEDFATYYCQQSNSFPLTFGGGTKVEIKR", "EXPERIMENTAL RESULT": 10.06}

Now consider a different binder.
I am curious: what pKd value has been reported for Antibody 177 (antibody, human IgG1, kappa, V domains shown) VH: EVQLVQSGAEVKKPGATVKISCKASGYTFSDYYLHWVRQAPEKGLEWMGWIDPENGDTESAPKFQGRVTITADTSTDTGYLELSSLRSEDTAVYYCAANKELRYFDVWGQGTLVTVSS VL: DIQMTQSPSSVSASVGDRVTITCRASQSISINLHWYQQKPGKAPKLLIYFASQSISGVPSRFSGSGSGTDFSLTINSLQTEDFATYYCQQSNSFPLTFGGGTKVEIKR ? 10.43

Cited source for all entries: patent US20110262445A1
